Measured AC50 (Vasopressin V2 receptor (Homo sapiens))

// worked examples, AC50 included
- Smiles input: "COc1cc(C(=O)NS(=O)(=O)c2ccccc2C)ccc1Cc1cn(C)c2ccc(NC(=O)OC3CCCC3)cc12"
  Tested on: "Vasopressin V2 receptor (Homo sapiens)"
  AC50: "> 10 µM"
- Smiles input: "O=C(c1cc(Cc2n[nH]c(=O)c3ccccc23)ccc1F)N1CCN(C(=O)C2CC2)CC1"
  Tested on: "Vasopressin V2 receptor (Homo sapiens)"
  AC50: "> 30 µM"
- Smiles input: "C[C@]12CCC(=O)C[C@@H]1CC[C@@H]1[C@@H]2CC[C@]2(C)[C@@H](O)CC[C@@H]12"
  Tested on: "Vasopressin V2 receptor (Homo sapiens)"
  AC50: "> 30 µM"

Now turn to the next compound.
GET /values?readout=AC50&system=Vasopressin V2 receptor (Homo sapiens)&item= O=C1c2ccccc2C(=O)C1c1ccccc1; note: assay procedure not described here
> 10 µM
